Assay: Phase I DDI study with itraconazole: plasma pharmacokinetics of BI 425809
Type: in vivo, human (healthy male volunteers)
Details: male, human, plasma, oral, 25 mg, AUC0-∞, adjusted gMean, BI 425809 alone (R), inferential analysis
measurementKind: AUC(0-inf)
Write down the value, and be sure its unit follows.

Given C[C@@H](Oc1ccc(S(C)(=O)=O)cc1C(=O)N1C[C@@H]2C[C@]2(c2cc(C(F)(F)F)on2)C1)C(F)(F)F , state its recorded AUC(0-inf).
11.1 µM·h

* * *

Experiment: Phase I DDI study with itraconazole: plasma pharmacokinetics of BI 425809
Type: in vivo, human (healthy male volunteers)
Conditions: read-out: Cmax, adjusted gMean; BI 425809 + itraconazole (T), inferential analysis
measurementKind: Cmax (nM)
Give the quantity in nM, number only.

Record request: Cmax value, item C[C@@H](Oc1ccc(S(C)(=O)=O)cc1C(=O)N1C[C@@H]2C[C@]2(c2cc(C(F)(F)F)on2)C1)C(F)(F)F [BI 425809]
367
